system: DMS-114; test: NCI tumour cell line growth inhibition, 48 h
Calls of active or inactive are those of the source. No stated cut-off is given here; in the data, active = GI50 up to about 1.1 µM and inactive = higher.

| compound | target.entity | GI50 |
| --- | --- | --- |
| O=C(NN1C(=O)C(Cl)C1c1ccc(O)cc1)c1ccccc1O (configuration not stated) | DMS-114 | 14 µM (inactive) |
| COC(=O)N/N=C/c1oc(-c2ccccc2)c(-c2ccccc2)c1[N+](=O)[O-] | DMS-114 | > 100 µM (inactive) |
| CN(C)c1nc(N(C)C)sc(=O)n1 | DMS-114 | > 100 µM (inactive) |
| O=C1C[C@H](c2ccc(O)c(O)c2)Oc2cc(O)cc(O)c21 | DMS-114 | 21.2 µM (inactive) |
| COc1ccc(C(c2c(O)c3ccccc3n(-c3ccccc3)c2=O)c2c(O)c3ccccc3n(-c3ccccc3)c2=O)cc1 | DMS-114 | > 100 µM (inactive) |
| CCCCCCCCc1cc2c(O)c(c1)Cc1cc(CCCCCCCC)cc(c1O)Cc1cc(CCCCCCCC)cc(c1O)Cc1cc(CCCCCCCC)cc(c1O)Cc1cc(CCCCCCCC)cc(c1O)Cc1cc(CCCCCCCC)cc(c1O)C2 | DMS-114 | > 100 µM (inactive) |
| COc1ccc(/N=N/c2c(N)nn(C)c2N)cc1 | DMS-114 | > 100 µM (inactive) |

----------
system: NCI-H23; assay: NCI tumour cell line growth inhibition, 48 h
Active and inactive are the calls of the source. Rule as the data show it: active = GI50 up to about 1.1 µM and inactive = higher. Numbered stars: 1 amine (or outer) side, 2 acyl side, 3 side chain; on linkers, the order of the positions; unused ones are H or OH. Bridge positions count the residues as written; N and C are the ends. Square brackets hold non-standard residues; d marks the D form. Peptide text beside a SMILES is read from it. I, II: the chains in the order shown. Actinocin(9to1) = Cc1c2oc3c(C)ccc(C(=O)[*:1])c3nc-2c(C(=O)[*:2])c(N)c1=O; X48 = O=C1CC(C(=O)[*:2])N([*:1])C1; NMeV = CN[CH](C(=O)O)C(C)C; Sar = CNCC(=O)O
Outcome codes: active, inactive

| molecule | classification |
| --- | --- |
| O=c1cc2n(c(=O)[nH]1)C1OC(C(O)C1O)[C@H]2CCO (some centres undefined) | inactive |
| CC(C)(C)C(=O)OCC1CCC[N+]2(C)CCCCC12 (centres undefined) | inactive |
| O=C(/C=C/c1ccsc1)c1ccc(Cl)cc1 | inactive |
| N#Cc1c(-c2ccco2)cc(-c2ccc(NCc3nc4ccccc4[nH]3)cc2)nc1N | inactive |
| O=c1c2nc(-c3ccccc3)oc2n(-c2ccccc2)c(=O)n1-c1ccccc1 | inactive |
| CCCC(C)NC1=C(NC(C)=O)C(=O)c2ccccc2C1=O (centres undefined) | inactive |
| CC(=O)c1ccc(-c2oc(-c3ccccc3)cc2-c2ccc3c(c2)OCO3)s1 | inactive |
| COc1cc2c(cc1OC)C(C(CBr)CBr)N(C1CCCC1)CC2 (centres undefined) | inactive |
| Cc1cc2c(cc1-c1cc3c(cc1C)C(C(C)C)=C(O)C(=O)/C3=C\NCC1CCCN3CCCCC13)/C(=C/NCC1CCCN3CCCCC13)C(=O)C(O)=C2C(C)C (centres undefined) | inactive |
| COc1cc(Cc2cnc(N)nc2N)cc(OC)c1OCCCNc1ccc([N+](=O)[O-])cc1 | inactive |
| CCN(CC)c1ccc2cc(C(N)=O)c(=N)oc2c1 | inactive |
| COc1cc(C2c3cc4c(cc3[C@H](NS(C)(=O)=O)C3COC(=O)[C@H]23)OCO4)cc(OC)c1OC (some centres undefined) | active |
| CCOC(=O)c1c(SCC#N)n(-c2ccccc2)c(=S)n(-c2ccccc2)c1=O | inactive |
| O=Nc1ccc(O)c2ncccc12 | active |
| N#CC(/C(CCCC(=O)Nc1cccc([N+](=O)[O-])c1)=N/NC(=O)c1cc2ccccc2cc1O)c1ccccc1 (centres undefined) | inactive |
| CCc1cccc(C(C)C)c1C1C(=O)C(=O)N(c2nc3ccccc3s2)C(=O)C1=O | inactive |
| COc1ccccc1OCC(=N/NC(=O)c1ccncc1)/N=C/c1ccncc1 | inactive |
| CN(C)c1ccc(/C=C2\N=C(NN)NC2=O)cc1 | inactive |
| Cc1c2oc3c(C)ccc(C(=O)NC4C(=O)NC(C(C)C)C(=O)N5CC(=O)CC5C(=O)N(C)CC(=O)N(C)C(C(C)C)C(=O)OC4C)c3nc-2c(C(=O)NC2C(=O)NC(C(C)C)C(=O)N3CC(=O)CC3C(=O)N(C)CC(=O)N(C)C(C(C)C)C(=O)OC2C)c(N)c1=O (centres undefined) (I: TV[X48][Sar][NMeV] / II: TV[X48][Sar][NMeV]; ester I:1-I:C, II:1-II:C; linker I:N-II:N via Actinocin(9to1); configuration not given here) | active |
| COc1c(-c2cccs2)oc2c(CC(=O)O)cccc2c1=O | inactive |
| BrC(/C=N/Nc1nnc(-c2ccccc2)c(-c2ccccc2)n1)C(Br)c1ccccc1 (centres undefined) | inactive |
| c1ccc(P2c3ccccc3Nc3ccccc32)cc1 | inactive |
| CC1OC(c2ccc3c(c2O)C(=O)C2=C(C3=O)C3(O)C(=O)CC(C)(O)CC3(O)C=C2)CC(O)C1O (centres undefined) | inactive |
| Cc1cc(O)c2c(c1)CC(O)C1=C2C(=O)c2c(O)ccc(OC3CC(O)C(OC4CC(OC5CCC(O)C(C)O5)C(O)C(C)O4)C(C)O3)c2C1=O (centres undefined) | inactive |
| COc1cccc(N2C(=O)C3CC(CC(C)(C)C)c4c([nH]c5ccccc45)C3C2=O)c1 (centres undefined) | inactive |
| C#CCn1c(=O)c2cc(OC)c(OC)cc2n(CC#C)c1=O | inactive |
| CC1=NC(=Cc2ccc(O)cc2)C(=O)N1n1c(-c2ccccc2)nc2ccccc2c1=O | inactive |
| CN1C/C(=C\c2cccs2)C(=O)/C(=C/c2cccs2)C1 | inactive |
| COc1ccc(C(=O)Cn2c(C(=O)/C=C/c3ccco3)nc3ccccc32)cc1 | inactive |

src = ChEMBL document CHEMBL1201862
